The values you see were collected from paper PMC7201532.

target: TRPV1 (Homo sapiens, UniProt Q8NER1); assay: Fluo-4 calcium imaging in HEK293 cells stably expressing human TRPV1; no effect in control T-REx HEK293 cells; blocked by AMG9810
Sequence (Q8NER1 whole entry): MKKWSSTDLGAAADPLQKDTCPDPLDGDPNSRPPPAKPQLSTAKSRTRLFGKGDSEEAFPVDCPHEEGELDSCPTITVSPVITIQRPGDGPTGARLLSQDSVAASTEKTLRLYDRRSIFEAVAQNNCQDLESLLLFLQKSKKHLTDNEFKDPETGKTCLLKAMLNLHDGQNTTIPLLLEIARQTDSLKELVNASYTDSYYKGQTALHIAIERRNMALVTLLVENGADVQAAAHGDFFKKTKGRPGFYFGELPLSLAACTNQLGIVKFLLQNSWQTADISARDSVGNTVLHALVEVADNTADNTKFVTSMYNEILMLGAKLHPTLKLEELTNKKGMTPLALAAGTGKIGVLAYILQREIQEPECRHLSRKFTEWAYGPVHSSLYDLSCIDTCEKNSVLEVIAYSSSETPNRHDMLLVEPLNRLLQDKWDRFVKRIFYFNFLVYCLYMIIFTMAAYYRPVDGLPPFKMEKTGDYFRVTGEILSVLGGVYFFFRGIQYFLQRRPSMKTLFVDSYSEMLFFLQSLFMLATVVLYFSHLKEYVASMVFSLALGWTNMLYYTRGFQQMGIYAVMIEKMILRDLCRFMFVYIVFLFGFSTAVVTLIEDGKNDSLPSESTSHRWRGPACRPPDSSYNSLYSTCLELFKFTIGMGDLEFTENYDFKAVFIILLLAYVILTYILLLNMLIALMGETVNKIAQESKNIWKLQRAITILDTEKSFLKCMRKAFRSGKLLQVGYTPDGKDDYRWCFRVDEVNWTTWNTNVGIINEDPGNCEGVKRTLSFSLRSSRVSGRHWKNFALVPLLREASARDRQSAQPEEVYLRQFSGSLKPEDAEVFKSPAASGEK
pEC50: −log10 of the molar value.
observable: pEC50

{"compound": "O=C(/C=C/C=C/c1ccc2c(c1)OCO2)N1CCCCC1 [Piperine]", "measuredNumber": 5.97}
